- Test system: Staphylococcus aureus
- assay.remarks: Antibacterial activity against gram positive Staphylococcus aureus(MTCC 96)
- Format: functional
property: MIC (µg/mL)
One number for each entry, in µg/mL.

1) CN1CCN(CCCCCCOc2cc(O)c3c(=O)cc(-c4ccccc4)oc3c2)CC1; 12.5
2) O=c1cc(-c2ccccc2)oc2cc(OCCCCN3CCOCC3)cc(O)c12; 12.5

For each of the compounds below, state MIC.
1. O=c1cc(-c2ccccc2)oc2cc(OCCCCCCN3CCCCC3)cc(O)c12
2. CN(C)CCCCCCOc1cc(O)c2c(=O)cc(-c3ccccc3)oc2c1
3. O=c1cc(-c2ccccc2)oc2cc(OCCCCN3CCCCC3)cc(O)c12

OUT:
1. 25
2. 25
3. 25
